- Assayed target: furin, P09958;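 further: purified furin at 1:10 enzyme:substrate in 50 mM HEPES pH 7.5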
- Sequence (P09958 whole entry): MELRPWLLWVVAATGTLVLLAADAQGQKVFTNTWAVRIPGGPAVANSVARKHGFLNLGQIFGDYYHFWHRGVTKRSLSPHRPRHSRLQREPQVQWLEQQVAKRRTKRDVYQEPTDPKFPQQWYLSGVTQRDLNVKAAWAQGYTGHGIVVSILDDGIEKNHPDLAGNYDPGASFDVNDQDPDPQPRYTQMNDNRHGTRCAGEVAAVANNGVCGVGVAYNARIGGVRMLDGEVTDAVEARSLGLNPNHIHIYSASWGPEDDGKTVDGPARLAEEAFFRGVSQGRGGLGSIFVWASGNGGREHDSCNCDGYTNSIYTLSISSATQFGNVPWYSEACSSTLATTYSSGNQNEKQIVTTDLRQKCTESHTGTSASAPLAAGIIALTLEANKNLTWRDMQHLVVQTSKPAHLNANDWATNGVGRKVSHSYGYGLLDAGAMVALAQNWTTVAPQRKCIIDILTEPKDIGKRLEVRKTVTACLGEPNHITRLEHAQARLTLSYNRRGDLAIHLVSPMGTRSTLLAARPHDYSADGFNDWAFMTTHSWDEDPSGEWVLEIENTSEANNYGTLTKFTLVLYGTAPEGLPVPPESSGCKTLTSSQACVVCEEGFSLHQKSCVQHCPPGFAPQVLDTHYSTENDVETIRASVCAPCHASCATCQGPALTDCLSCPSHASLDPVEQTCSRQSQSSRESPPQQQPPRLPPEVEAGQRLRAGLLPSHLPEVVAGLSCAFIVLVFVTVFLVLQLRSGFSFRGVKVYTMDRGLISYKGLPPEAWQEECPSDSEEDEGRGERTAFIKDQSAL
- Method notes: furin cleavage Z-score vs untreated control; higher = more cleavage, active = 3.5 or more, inactive = 1 or less, 8 variable residues between constant flanks
- Applied conditions: 15 min
Some of the results follow. The hit rate among all sequences tested is not known here.
Property name: furin cleavage Z-score

• CACVREGNASAGNASASA [HC275] = -1.14
• CASNGRRKRSAGNASASA [FS-1570] = 11.1
• CAGSSREVRSAGNASASA [FS-29] = 4.54
• CANTPCSAHLAGNASASA [HC2481] = -0.245
• CASTPCSQHLAGNASASA [HC2542] = 0.861
• CALLSPRGSRAGNASASA [HC209] = -0.229
• CALLFRSNRDAGNASASA [FS-822] = 4.77
• CAEVMTSTWVAGNASASA [HC2186] = -0.894
• CAALWRVSAEAGNASASA [HC1201] = -0.15
• CARRKRAVNPAGNASASA [FS-2294] = 3.83
• CALLSRRPRDAGNASASA [FS-611] = 10.5
• CARIRRGTDEAGNASASA [FS-1956] = 12.2
• CARPDRPVLKAGNASASA [FS-2436] = -0.376
• CAMYECSQHLAGNASASA [HC1689] = 2.02
• CAQMYTNVDQAGNASASA [HC710] = -0.937
• CARMARNVLKAGNASASA [FS-2281] = 2.22
• CATLARRKRSAGNASASA [FS-1423] = 11.2
• CARMAREVAAAGNASASA [FS-1909] = 4.78
• CARRMRRAGQAGNASASA [FS-2178] = 5.28
• CARIRRDVRVAGNASASA [FS-1899] = 10.4
• CAVALSTTGEAGNASASA [HC843] = -1.96
• CALLSCLTVPAGNASASA [HC251] = 0.458
• CARRKRAKVEAGNASASA [FS-3051] = 5.28
• CAHGAGTRTIAGNASASA [HC702] = 1.35
• CATTPRSGSWAGNASASA [HC50] = -0.703
